# MEASUREMENT_TARGET: CST (CTC1-STN1-TEN1) (human, UniProt Q2NKJ3;Q9H668;Q86WV5 1-1217;1-368;1-123)
# Sequence (Q2NKJ3 whole entry, chain 1 of 3): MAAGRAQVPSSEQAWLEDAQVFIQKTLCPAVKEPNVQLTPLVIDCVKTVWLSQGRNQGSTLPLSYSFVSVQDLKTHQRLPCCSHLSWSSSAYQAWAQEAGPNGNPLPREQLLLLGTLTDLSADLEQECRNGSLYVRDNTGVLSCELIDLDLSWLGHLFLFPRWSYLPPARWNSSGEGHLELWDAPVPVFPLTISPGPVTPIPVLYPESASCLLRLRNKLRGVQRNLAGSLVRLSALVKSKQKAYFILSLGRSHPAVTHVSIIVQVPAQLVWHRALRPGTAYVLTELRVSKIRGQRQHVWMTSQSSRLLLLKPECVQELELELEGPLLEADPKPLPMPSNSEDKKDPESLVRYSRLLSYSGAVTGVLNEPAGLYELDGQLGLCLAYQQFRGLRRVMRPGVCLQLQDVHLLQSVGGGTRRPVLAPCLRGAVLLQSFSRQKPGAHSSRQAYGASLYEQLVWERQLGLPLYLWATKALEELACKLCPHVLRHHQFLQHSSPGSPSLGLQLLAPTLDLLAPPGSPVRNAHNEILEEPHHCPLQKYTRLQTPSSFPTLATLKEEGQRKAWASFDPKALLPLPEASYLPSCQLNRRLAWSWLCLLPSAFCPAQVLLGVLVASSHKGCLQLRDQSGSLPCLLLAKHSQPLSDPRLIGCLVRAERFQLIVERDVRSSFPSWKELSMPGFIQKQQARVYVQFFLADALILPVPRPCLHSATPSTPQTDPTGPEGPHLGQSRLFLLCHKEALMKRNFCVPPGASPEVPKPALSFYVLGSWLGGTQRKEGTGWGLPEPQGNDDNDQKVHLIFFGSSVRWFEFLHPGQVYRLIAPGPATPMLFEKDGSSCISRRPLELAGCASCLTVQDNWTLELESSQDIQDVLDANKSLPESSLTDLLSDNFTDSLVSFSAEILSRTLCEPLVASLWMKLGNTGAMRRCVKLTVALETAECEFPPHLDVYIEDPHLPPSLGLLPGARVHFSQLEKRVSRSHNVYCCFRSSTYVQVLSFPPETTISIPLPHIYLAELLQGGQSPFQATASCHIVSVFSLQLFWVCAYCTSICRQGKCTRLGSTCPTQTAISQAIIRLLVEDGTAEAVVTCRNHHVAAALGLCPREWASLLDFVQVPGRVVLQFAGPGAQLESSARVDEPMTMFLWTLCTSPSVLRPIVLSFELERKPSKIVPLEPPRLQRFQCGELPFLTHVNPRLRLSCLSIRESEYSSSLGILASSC
# Sequence (Q9H668 whole entry, chain 2 of 3): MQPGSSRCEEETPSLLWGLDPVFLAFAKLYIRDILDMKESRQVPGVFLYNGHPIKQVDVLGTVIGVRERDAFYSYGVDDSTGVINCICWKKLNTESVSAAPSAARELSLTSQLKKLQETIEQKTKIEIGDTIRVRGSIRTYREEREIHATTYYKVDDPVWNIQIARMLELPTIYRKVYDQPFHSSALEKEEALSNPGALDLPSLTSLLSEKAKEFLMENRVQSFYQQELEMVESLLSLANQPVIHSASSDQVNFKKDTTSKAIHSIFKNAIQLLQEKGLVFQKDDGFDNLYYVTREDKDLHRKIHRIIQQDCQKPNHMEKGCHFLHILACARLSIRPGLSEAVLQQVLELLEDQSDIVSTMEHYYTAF
# Sequence (Q86WV5 whole entry, chain 3 of 3): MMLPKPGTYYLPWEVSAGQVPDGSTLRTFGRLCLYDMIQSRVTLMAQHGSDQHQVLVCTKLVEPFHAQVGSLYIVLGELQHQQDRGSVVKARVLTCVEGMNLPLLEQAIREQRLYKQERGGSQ
# METHOD_DESCRIPTION: fluorescence anisotropy; 200 mM LiCl; FA: 200 mM NaCl, KCl or LiCl, 20 mM HEPES pH 7.4, 1 mM DTT, 22-25 C, 375 or 750 pM oligo, Kd,app +/- SEM; EMSA: 20 mM HEPES pH 7.4, 200 mM KCl, 1 nM 32P oligo
# MEASUREMENT_CONTEXT: protein: recombinant; tags: 2xFLAG N-term on CTC1; 6xHis N-term on STN1 and TEN1; copies: 1;1;1; label: 5' fluorescein; antiparallel G4 in KCl; linear in LiCl
VALUE_TYPE: Kd (nM)
Give bare numbers, in nM.

GGGTAGGGAGCGGGAGAGGG (structured_DNA) [6GZN]	1.1

Here's the next entry for you.
Input line: What value of measured Kd is listed for AGGGCTAGGGCTAGGGCTAGGG (structured_DNA) [2KM3] ?
Output line: 4.5
